All figures here come from patent US10508098B2.

Hi there, I'd appreciate the recorded IC50 for every entry that follows.

Please provide the recorded IC50 for O=C(c1ccccc1)N1CCC(O)(Cn2cnc3cc(-c4ccccc4)ccc3c2=O)CC1 , tested on USP7 (Homo sapiens (Human)).
Sequence (Q93009 208-1102): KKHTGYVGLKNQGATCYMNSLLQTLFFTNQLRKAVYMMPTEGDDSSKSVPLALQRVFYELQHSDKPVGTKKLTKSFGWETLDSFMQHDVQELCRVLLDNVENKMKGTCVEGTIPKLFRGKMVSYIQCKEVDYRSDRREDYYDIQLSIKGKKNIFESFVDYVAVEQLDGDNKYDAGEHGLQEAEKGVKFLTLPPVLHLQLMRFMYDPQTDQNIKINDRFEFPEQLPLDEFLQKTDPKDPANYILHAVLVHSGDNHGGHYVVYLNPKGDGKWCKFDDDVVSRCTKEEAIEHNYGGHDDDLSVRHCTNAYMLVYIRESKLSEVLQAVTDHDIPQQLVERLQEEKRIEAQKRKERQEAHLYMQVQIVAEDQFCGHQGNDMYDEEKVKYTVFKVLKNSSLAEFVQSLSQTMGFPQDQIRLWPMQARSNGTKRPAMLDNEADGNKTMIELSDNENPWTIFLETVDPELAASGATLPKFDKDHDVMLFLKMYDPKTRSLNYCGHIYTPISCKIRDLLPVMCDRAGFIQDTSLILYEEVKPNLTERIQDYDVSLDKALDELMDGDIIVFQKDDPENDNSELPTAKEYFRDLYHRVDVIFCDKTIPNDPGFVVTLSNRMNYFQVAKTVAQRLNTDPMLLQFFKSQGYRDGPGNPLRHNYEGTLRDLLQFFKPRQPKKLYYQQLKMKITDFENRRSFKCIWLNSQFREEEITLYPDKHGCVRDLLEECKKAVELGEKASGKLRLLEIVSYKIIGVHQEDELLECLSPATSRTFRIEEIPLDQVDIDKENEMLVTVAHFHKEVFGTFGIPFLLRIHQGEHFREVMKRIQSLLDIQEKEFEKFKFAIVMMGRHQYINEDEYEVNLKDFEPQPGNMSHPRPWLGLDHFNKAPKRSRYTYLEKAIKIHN
> 10000 nM

Please provide the recorded IC50 for CC(CC(=O)N1CCC(O)(Cn2cnc3cnccc3c2=O)CC1)c1ccccc1 (centres unmarked) , tested on USP7 (Homo sapiens (Human)).
1000 to 10000 nM

Please provide the recorded IC50 for CC(CC(=O)N1CCC(O)(Cn2cnc3ncccc3c2=O)CC1)c1ccccc1 (centres unmarked) , tested on USP7 (Homo sapiens (Human)).
> 10000 nM

Please provide the recorded IC50 for O=C(c1ccccc1)N1CCC(O)(Cn2cnc3c(-c4ccccc4)cccc3c2=O)CC1 , tested on USP7 (Homo sapiens (Human)).
1000 to 10000 nM

Please provide the recorded IC50 for Cc1ccc2c(=O)n(CC3(O)CCN(C(=O)c4ccc5c(c4)CCN5Cc4ccccc4)CC3)cnc2c1 , tested on USP7 (Homo sapiens (Human)).
1000 to 10000 nM

Please provide the recorded IC50 for CC(=O)Nc1ccc2c(=O)n(CC3(O)CCN(C(=O)CC(C)c4ccccc4)CC3)cnc2c1 (centres unmarked) , tested on USP7 (Homo sapiens (Human)).
< 200 nM

Please provide the recorded IC50 for CC(CC(=O)N1CCC(O)(Cn2cnc3cccnc3c2=O)CC1)c1ccccc1 (centres unmarked) , tested on USP7 (Homo sapiens (Human)).
200 to 1000 nM

Please provide the recorded IC50 for CC(CC(=O)N1CCC(O)(Cn2cnc3cc(N)ccc3c2=O)CC1)c1ccccc1 (centres unmarked) , tested on USP7 (Homo sapiens (Human)).
< 200 nM

----------
pIC50: −log10 of the molar value.
Hi there, I'd appreciate the recorded pIC50 for every entry that follows.

Please provide the recorded pIC50 for COc1ccc2c(=O)n(CC3(O)CCN(C(=O)CC(C)c4ccccc4)CC3)cnc2c1 (centres unmarked) [Compound I-1] , tested on USP7 (Homo sapiens (Human)).
> 6.70

Please provide the recorded pIC50 for Cc1cccc2c(=O)n(CC3(O)CCN(C(=O)C[C@@H](C)c4ccccc4)CC3)cnc12 [Compound I-6] , tested on USP7 (Homo sapiens (Human)).
> 6.70

Please provide the recorded pIC50 for COc1ccc2c(=O)n(CC3(O)CCN(C(=O)C[C@@H](C)c4ccccc4)CC3)cnc2c1 [Compound I-5] , tested on USP7 (Homo sapiens (Human)).
> 6.70

Please provide the recorded pIC50 for Cc1cccc2c(=O)n(CC3(O)CCN(C(=O)CC(C)c4ccccc4)CC3)cnc12 (centres unmarked) [Compound I-2] , tested on USP7 (Homo sapiens (Human)).
> 6.70

Please provide the recorded pIC50 for O=C(c1ccc(F)cc1)N1CCC(O)(Cn2cnc3c(Oc4ccc(F)cc4)cccc3c2=O)CC1 [Compound I-10] , tested on USP7 (Homo sapiens (Human)).
5.00 to 6.00
